# tested target: Acyl-CoA desaturase 1 (Rattus norvegicus, UniProt P07308)
# Sequence (P07308 whole entry): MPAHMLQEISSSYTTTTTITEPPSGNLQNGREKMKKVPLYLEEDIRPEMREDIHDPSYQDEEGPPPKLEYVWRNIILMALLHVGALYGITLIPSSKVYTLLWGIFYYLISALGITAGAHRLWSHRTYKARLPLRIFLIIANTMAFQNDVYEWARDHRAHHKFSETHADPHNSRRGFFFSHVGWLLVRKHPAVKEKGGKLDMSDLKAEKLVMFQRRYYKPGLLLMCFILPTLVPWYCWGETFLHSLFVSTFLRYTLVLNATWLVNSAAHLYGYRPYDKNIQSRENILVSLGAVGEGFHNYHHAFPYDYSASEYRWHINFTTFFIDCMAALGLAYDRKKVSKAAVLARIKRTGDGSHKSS
# assay name: Inhibition of rat SCD by rat microsomal assay
value kind: pIC50
By convention, pIC50 is the negative base-10 log of a molar concentration.

{"substance smiles": "O=C(O)CCc1nc(-c2cn(Cc3cc(Br)c(Br)c(Br)c3)nn2)no1", "pIC50": 6.26}

For the next question, use this compound.
### Prompt Please give the documented pIC50 of "NC(=O)c1cn(Cc2cc(Br)c(Br)c(Br)c2)nn1"
### Response 7.72
